Source listed as ChEMBL document CHEMBL1125826.

test system: Streptococcus pneumoniae; assay: Antibacterial activity was determined against gram positive organism, Streptococcus pneumoniae SV-1; assay type: functional; conditions: Streptococcus pneumoniae; read-out: MIC
Task for the reader: assign each of the following molecules its reported MIC.
Quick note: give the figure in µg/mL, leave out the unit.

response.value for CC1CN(c2c(F)c(N)c3c(=O)c(C(=O)O)cn(C4CC4)c3c2Cl)CC(C)N1 (stereo unspecified) (field: MIC) = 0.1

response.value for CC1COc2c(N3CCC(N)C3)c(F)cc3c(=O)c(C(=O)O)cn1c23 (stereo unspecified) (field: MIC) = 0.8

response.value for CCn1cc(C(=O)O)c(=O)c2c(N)c(F)c(N3CCNCC3)c(Cl)c21 (field: MIC) = 3.1

response.value for CCn1cc(C(=O)O)c(=O)c2cc(F)c(N3CCNCC3)c(Cl)c21 (field: MIC) = 3.1

response.value for CCn1cc(C(=O)O)c(=O)c2c(N)c(F)c(N3CCNC(C)C3)c(F)c21 (stereo unspecified) (field: MIC) = 3.1

response.value for NC1CCN(c2c(F)cc3c(=O)c(C(=O)O)cn(C4CC4)c3c2F)C1 (stereo unspecified) (field: MIC) = 0.05

response.value for O=C(O)c1cn(C2CC2)c2c(F)c(N3CCNCC3)c(F)cc2c1=O (field: MIC) = 0.8

response.value for CCn1cc(C(=O)O)c(=O)c2c(N)c(F)c(N3CC(C)NC(C)C3)c(Cl)c21 (stereo unspecified) (field: MIC) = 25

response.value for CC1COc2c(N3CCC(N)C3)c(F)c(N)c3c(=O)c(C(=O)O)cn1c23 (stereo unspecified) (field: MIC) = 0.8

response.value for NC1CCN(c2cc3c(c(O)c2F)c(=O)c(C(=O)O)cn3C2CC2)C1 (stereo unspecified) (field: MIC) = 0.05

response.value for CCn1cc(C(=O)O)c(=O)c2cc(F)c(N3CCNC(C)C3)c(Cl)c21 (stereo unspecified) (field: MIC) = 3.1

response.value for Nc1c(F)c(N2CCC(N)C2)c(Cl)c2c1c(=O)c(C(=O)O)cn2C1CC1 (stereo unspecified) (field: MIC) = 0.1

response.value for CC1CN(c2c(F)cc3c(=O)c(C(=O)O)cn(C4CC4)c3c2F)CCN1 (stereo unspecified) (field: MIC) = 0.4

response.value for CCn1cc(C(=O)O)c(=O)c2c(N)c(F)c(N3CCC(N)C3)c(F)c21 (stereo unspecified) (field: MIC) = 0.8

response.value for CC1CN(c2c(F)c(O)c3c(=O)c(C(=O)O)cn(C4CC4)c3c2F)CCN1 (stereo unspecified) (field: MIC) = 0.4

response.value for CC1CN(c2cc3c(cc2F)c(=O)c(C(=O)O)cn3C2CC2)CC(C)N1 (stereo unspecified) (field: MIC) = 0.2

response.value for CCn1cc(C(=O)O)c(=O)c2cc(F)c(N3CCNC(C)C3)c(F)c21 (stereo unspecified) (field: MIC) = 1.6

response.value for O=C(O)c1cn(C2CC2)c2cc(N3CCNCC3)c(F)c(O)c2c1=O (field: MIC) = 0.8

response.value for CCn1cc(C(=O)O)c(=O)c2cc(F)c(N3CC(C)NC(C)C3)c(F)c21 (stereo unspecified) (field: MIC) = 6.3

response.value for Nc1c(F)c(N2CCNCC2)c(Cl)c2c1c(=O)c(C(=O)O)cn2C1CC1 (field: MIC) = 0.1

response.value for Nc1c(F)c(N2CCC(N)C2)c(F)c2c1c(=O)c(C(=O)O)cn2C1CC1 (stereo unspecified) (field: MIC) = 0.025

response.value for CCn1cc(C(=O)O)c(=O)c2c(N)c(F)c(N3CCNCC3)cc21 (field: MIC) = 0.1

response.value for O=C(O)c1cn(C2CC2)c2c(F)c(N3CCNCC3)c(F)c(O)c2c1=O (field: MIC) = 1.6

response.value for NC1CCN(c2c(F)c(O)c3c(=O)c(C(=O)O)cn(C4CC4)c3c2F)C1 (stereo unspecified) (field: MIC) = 0.05

response.value for CC1CN(c2c(F)c(N)c3c(=O)c(C(=O)O)cn(C4CC4)c3c2Cl)CCN1 (stereo unspecified) (field: MIC) = 0.05

response.value for O=C(O)c1cn(C2CC2)c2c(Cl)c(N3CCNCC3)c(F)cc2c1=O (field: MIC) = 0.1

response.value for CC1CN(c2c(F)cc3c(=O)c(C(=O)O)cn(C4CC4)c3c2Cl)CCN1 (stereo unspecified) (field: MIC) = 0.2

response.value for CCNCC1CCN(c2c(F)c(N)c3c(=O)c(C(=O)O)cn(CC)c3c2Cl)C1 (stereo unspecified) (field: MIC) = 1.6

response.value for CCNCC1CCN(c2c(F)cc3c(=O)c(C(=O)O)cn(C4CC4)c3c2Cl)C1 (stereo unspecified) (field: MIC) = 0.003

response.value for CCNCC1CCN(c2c(F)cc3c(=O)c(C(=O)O)cn(CC)c3c2Cl)C1 (stereo unspecified) (field: MIC) = 0.05

response.value for CCNCC1CCN(c2cc3c(cc2F)c(=O)c(C(=O)O)cn3CC)C1 (stereo unspecified) (field: MIC) = 0.2

response.value for CC1CN(c2c(F)c(N)c3c(=O)c(C(=O)O)cn(C4CC4)c3c2F)CCN1 (stereo unspecified) (field: MIC) = 0.05

response.value for CCNCC1CCN(c2c(F)c(N)c3c(=O)c(C(=O)O)cn4c3c2OCC4C)C1 (stereo unspecified) (field: MIC) = 0.4

response.value for CCn1cc(C(=O)O)c(=O)c2cc(F)c(N3CC(C)NC(C)C3)c(Cl)c21 (stereo unspecified) (field: MIC) = 12.5

response.value for CCNCC1CCN(c2cc3c(cc2F)c(=O)c(C(=O)O)cn3C2CC2)C1 (stereo unspecified) (field: MIC) = 0.2

response.value for CCn1cc(C(=O)O)c(=O)c2cc(F)c(N3CCC(N)C3)cc21 (stereo unspecified) (field: MIC) = 0.4

response.value for CCNCC1CCN(c2c(F)c(N)c3c(=O)c(C(=O)O)cn(C4CC4)c3c2Cl)C1 (stereo unspecified) (field: MIC) = 0.025

response.value for CCNCC1CCN(c2cc3c(c(N)c2F)c(=O)c(C(=O)O)cn3C2CC2)C1 (stereo unspecified) (field: MIC) = 0.05

response.value for CCn1cc(C(=O)O)c(=O)c2cc(F)c(N3CCC(N)C3)c(Cl)c21 (stereo unspecified) (field: MIC) = 0.4

response.value for CC1CN(c2cc3c(cc2F)c(=O)c(C(=O)O)cn3C2CC2)CCN1 (stereo unspecified) (field: MIC) = 0.2

response.value for CCNCC1CCN(c2c(F)c(N)c3c(=O)c(C(=O)O)cn(C4CC4)c3c2F)C1 (stereo unspecified) (field: MIC) = 0.003
